Values from patent US12318368B2

system: HCT-116 cell lines; test: MTT cell proliferation assay; type: cell-based; settings: Homo sapiens, 72 h; HCT-116 colon cancer cells, MTT, single treatment, three days results, absorbance 570 nm; read-out: IC50 (half-maximal inhibitory concentration)
READOUT KIND: IC50 (µM)
Enter your answer as a number in µM; do not include the unit.

The measured IC50 associated with COCCN1C(=O)/C(=C/c2ccc(OCC(=O)Nc3ccc(C)cc3)cc2)S/C1=N\c1ccccc1 [compound of formula I] reads 25
